Source of measurements: patent US20240425479A1

Reported IC50 is given for each of the following compounds.
Target entity: UniProtKB P06239
Sequence (P06239 whole entry): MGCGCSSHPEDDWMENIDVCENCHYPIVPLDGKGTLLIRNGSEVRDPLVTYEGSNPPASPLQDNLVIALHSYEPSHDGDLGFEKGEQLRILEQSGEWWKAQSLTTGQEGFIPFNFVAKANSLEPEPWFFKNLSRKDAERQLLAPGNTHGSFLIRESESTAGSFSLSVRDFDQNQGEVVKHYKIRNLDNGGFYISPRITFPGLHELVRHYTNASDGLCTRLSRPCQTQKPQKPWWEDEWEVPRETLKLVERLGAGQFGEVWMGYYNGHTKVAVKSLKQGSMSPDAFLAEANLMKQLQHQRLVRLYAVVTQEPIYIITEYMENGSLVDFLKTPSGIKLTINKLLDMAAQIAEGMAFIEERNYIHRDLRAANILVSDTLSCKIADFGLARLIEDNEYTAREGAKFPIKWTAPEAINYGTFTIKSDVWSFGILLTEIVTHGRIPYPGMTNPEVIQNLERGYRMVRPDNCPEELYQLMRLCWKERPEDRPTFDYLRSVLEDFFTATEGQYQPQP
Method summary: Lck human STE kinase enzymatic radiometric assay
Type: biochemical
Protocol conditions: read-out: Lck IC50 nM Range

C[C@@H]1CN(c2ccc(-c3nc(-c4cc5c(cc4F)C(=O)NCC5)c(N)nc3F)cc2CN(C)C)CCO1	101 to 1000 nM
CC(C)N1CC=C(c2ccc(-c3nc(-c4cc5c(cc4F)C(=O)NCC5)c(N)nc3F)cc2)CC1	101 to 1000 nM
CN1C[C@@H]2C[C@]2(c2ccc(-c3nc(-c4cc5c(cc4F)C(=O)NCC5)c(N)nc3F)cc2)C1	> 1000 nM

Q. What IC50 value was documented for this compound, `Nc1nc(F)c(-c2ccc(N3CCOCC3)cc2)nc1-c1cc(F)c2c(=O)[nH]ccc2c1` ?
A. > 1000 nM

Q. What IC50 value was documented for this compound, `Cc1cc2cc(-c3nc(-c4ccc(N5CCN(C(C)C)CC5)cc4)c(F)nc3N)cc(F)c2c(=O)[nH]1` ?
A. > 1000 nM

Q. What IC50 value was documented for this compound, `CN(C)Cc1cc(-c2nc(-c3cc(F)c4c(c3)CCNC4=O)c(N)nc2F)ccc1C1CCOCC1` ?
A. > 1000 nM

Q. What IC50 value was documented for this compound, `CN(C)Cc1cc(-c2nc(-c3ccc4c(=O)[nH]cc(F)c4c3)c(N)nc2F)ccc1C1CCOCC1` ?
A. > 1000 nM

Q. What IC50 value was documented for this compound, `Nc1nc(F)c(-c2ccc(N3CCN(CC4CC4)CC3)cc2)nc1-c1cc2cc[nH]c(=O)c2cc1F` ?
A. 101 to 1000 nM

---

Reported IC50 is given for each of the following compounds.
Target entity: Recombinant (1-346) HPK1 (h) (Homo sapiens)
Construct: Recombinant (1-346) HPK1 (h) is incubated with 8 mM MOPS pH 7.0
Sequence (Q92918 1-346): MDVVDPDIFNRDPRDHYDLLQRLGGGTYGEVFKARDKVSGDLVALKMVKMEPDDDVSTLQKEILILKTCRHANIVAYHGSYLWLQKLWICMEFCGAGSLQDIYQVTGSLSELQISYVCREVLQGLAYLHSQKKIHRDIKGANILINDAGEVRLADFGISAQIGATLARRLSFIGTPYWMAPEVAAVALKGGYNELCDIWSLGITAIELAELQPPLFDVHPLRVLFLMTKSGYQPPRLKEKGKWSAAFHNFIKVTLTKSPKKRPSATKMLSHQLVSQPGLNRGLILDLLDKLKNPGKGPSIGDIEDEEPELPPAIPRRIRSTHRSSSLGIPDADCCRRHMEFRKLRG
Method summary: HPK1 human STE kinase enzymatic radiometric assay
Type: biochemical
Protocol conditions: read-out: HPK1 IC50 nM Range

COC1CCN(Cc2cc(-c3nc(-c4ccc5c(c4)CCNC5=O)c(N)nc3F)ccc2N2CCOCC2)CC1 [Example I-138]	11 to 100 nM
Nc1nc(F)c(-c2ccc(N3CCOCC3)c(CN3CCC3)c2)nc1-c1ccc2c(c1)CCNC2=O [Example I-144]	0.1 to 10 nM
COCCN(C)Cc1cc(-c2nc(-c3cc(F)c4c(c3)CCNC4=O)c(N)nc2F)ccc1C1CCOCC1 [Example I-176]	0.1 to 10 nM
Nc1nc(F)c(-c2ccc(N3CCN(CCC(F)F)CC3)cc2)nc1-c1cc(F)c2c(c1)CCNC2=O [Example I-82]	0.1 to 10 nM
Cc1c[nH]c(=O)c2ccc(-c3nc(-c4ccc(C5CCOCC5)c(CN(C)C)c4)c(F)nc3N)cc12 [Example I-98]	0.1 to 10 nM

Q. What IC50 value was documented for this compound, C[C@H]1CN(c2ccc(-c3nc(-c4ccc5c(c4)CCNC5=O)c(N)nc3F)cc2CN(C)C)CCO1 [Example I-211] ?
A. 0.1 to 10 nM

Q. What IC50 value was documented for this compound, CN(C)Cc1c(N2CCOCC2)ccc(-c2nc(-c3cc(F)c4c(c3)CCNC4=O)c(N)nc2F)c1F [Example I-242] ?
A. 11 to 100 nM

Q. What IC50 value was documented for this compound, Cc1c[nH]c(=O)c2c(F)cc(-c3nc(-c4ccc(N5CCN(C(C)C)CC5)cc4)c(F)nc3N)cc12 [Example I-166] ?
A. 0.1 to 10 nM

---

Target entity: Recombinant (1-346) HPK1 (h) (Homo sapiens, UniProt Q92918)
Construct: Recombinant (1-346) HPK1 (h) is incubated with 8 mM MOPS pH 7.0
Sequence (Q92918 1-346): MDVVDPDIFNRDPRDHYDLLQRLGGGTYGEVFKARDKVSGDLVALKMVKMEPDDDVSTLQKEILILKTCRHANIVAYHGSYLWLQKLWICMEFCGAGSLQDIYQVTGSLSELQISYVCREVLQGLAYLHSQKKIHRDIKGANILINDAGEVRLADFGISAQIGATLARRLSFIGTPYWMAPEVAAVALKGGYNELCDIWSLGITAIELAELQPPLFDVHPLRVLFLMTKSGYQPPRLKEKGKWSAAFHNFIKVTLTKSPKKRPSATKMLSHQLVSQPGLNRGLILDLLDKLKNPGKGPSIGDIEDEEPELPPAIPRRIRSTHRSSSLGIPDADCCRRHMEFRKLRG
Method summary: HPK1 human STE kinase enzymatic radiometric assay
Format: biochemical
Protocol conditions: read-out: HPK1 IC50 nM Range
Reported IC50 is given for each of the following compounds.

Below are worked cases with known answers.
Nc1nc(F)c(-c2ccc(N3CCOCC3)c(CN3CCCCC3)c2)nc1-c1cc2c(cc1F)C(=O)NCC2	11 to 100 nM
Cc1c[nH]c(=O)c2ccc(-c3nc(-c4ccc(C5CCOCC5)c(CN5CCC5)c4)c(F)nc3N)cc12	0.1 to 10 nM
CN(C)[C@@H]1COc2ccc(-c3nc(-c4cc(F)c5c(c4)CCNC5=O)c(N)nc3F)cc21	11 to 100 nM
Nc1nc(F)c(-c2ccc(N3CCOCC3)cc2)nc1-c1ccc2c(c1)CCNC2=O	0.1 to 10 nM
CC(C)N1CCN(c2ccc(-c3nc(-c4ccc5c(=O)[nH]cc(Cl)c5c4)c(N)nc3F)cc2)CC1	0.1 to 10 nM

Q. What IC50 value was documented for this compound, `CC(C)N1CCC(c2ccc(-c3nc(-c4cc(F)c5c(c4)CCNC5=O)c(N)nc3F)cc2)CC1` ?
A. 0.1 to 10 nM

Q. What IC50 value was documented for this compound, `CC(C)N1C[C@H]2C[C@@]2(c2ccc(-c3nc(-c4cc5c(cc4F)C(=O)NCC5)c(N)nc3F)cc2)C1` ?
A. 0.1 to 10 nM

Q. What IC50 value was documented for this compound, `Nc1nc(F)c(-c2ccc(N3CCN(CCC(F)F)CC3)cc2)nc1-c1ccc2c(=O)[nH]ccc2c1` ?
A. 11 to 100 nM

Q. What IC50 value was documented for this compound, `Cc1c[nH]c(=O)c2ccc(-c3nc(-c4ccc(N5CCN(CCCC(F)F)CC5)cc4)c(F)nc3N)cc12` ?
A. 0.1 to 10 nM

Q. What IC50 value was documented for this compound, `COC1CCN(Cc2cc(-c3nc(-c4ccc5c(c4)CCNC5=O)c(N)nc3F)ccc2N2CCSCC2)CC1` ?
A. 11 to 100 nM

Q. What IC50 value was documented for this compound, `CN(C)Cc1cc(-c2nc(-c3ccc4c(=O)[nH]cc(Cl)c4c3)c(N)nc2F)ccc1N1CCOCC1` ?
A. 0.1 to 10 nM

Q. What IC50 value was documented for this compound, `Cc1[nH]c(=O)c2ccc(-c3nc(-c4ccc(N5CCN(C(C)C)CC5)cc4)c(F)nc3N)cc2c1F` ?
A. 0.1 to 10 nM

Q. What IC50 value was documented for this compound, `Nc1nc(F)c(-c2ccc(N3CCN(CC4CC4)CC3)cc2)nc1-c1ccc2c(=O)[nH]ccc2c1` ?
A. 0.1 to 10 nM

Q. What IC50 value was documented for this compound, `COC1CN(Cc2cc(-c3nc(-c4ccc5c(c4)CCNC5=O)c(N)nc3F)ccc2N2CCOCC2)C1` ?
A. 0.1 to 10 nM

Q. What IC50 value was documented for this compound, `CO[C@H]1CCN(Cc2cc(-c3nc(-c4ccc5c(c4)CCNC5=O)c(N)nc3F)ccc2N2CCOCC2)C1` ?
A. 0.1 to 10 nM

---

Reported IC50 is given for each of the following compounds.
Target entity: Recombinant (1-346) HPK1 (h) (Homo sapiens, UniProt Q92918)
Construct: Recombinant (1-346) HPK1 (h) is incubated with 8 mM MOPS pH 7.0
Method summary: HPK1 human STE kinase enzymatic radiometric assay
Type: biochemical
Protocol conditions: read-out: HPK1 IC50 nM Range
Method: (a) HPK1 Human STE Kinase Enzymatic Radiometric Assay A stock solution of 10 mM of test compound is prepared in DMSO. The compound plate was prepared by 3-fold and 9-point serial dilutions. Recombinant (1-346) HPK1 (h) is incubated with 8 mM MOPS pH 7.0, 0.2 mM EDTA, 0.33 mg/mL myelin basic protein, 10 mM MgAcetate and [gamma-33P]-ATP (specific activity and concentration as required). The reaction is initiated by the addition of the Mg/ATP mix. […]

Below are worked cases with known answers.
C[C@H]1CN(c2ccc(-c3nc(-c4cc(F)c5c(c4)CCNC5=O)c(N)nc3F)cc2CN(C)C)CCO1	0.1 to 10 nM
CCN(C)Cc1cc(-c2nc(-c3ccc4c(=O)[nH]cc(F)c4c3)c(N)nc2F)ccc1OC	11 to 100 nM

Q. What IC50 value was documented for this compound, `CN(C)Cc1cc(-c2nc(-c3ccc4c(c3)CCNC4=O)c(N)nc2F)ccc1N1CCOCC1` ?
A. 0.1 to 10 nM

Q. What IC50 value was documented for this compound, `CCN(C)Cc1c(N2CCOCC2)ccc(-c2nc(-c3ccc4c(c3)CCNC4=O)c(N)nc2F)c1F` ?
A. 11 to 100 nM

Q. What IC50 value was documented for this compound, `Nc1nc(F)c(-c2ccc(C3CCOCC3)c(CN3CCC3)c2)nc1-c1cc(F)c2c(c1)CCNC2=O` ?
A. 0.1 to 10 nM

Q. What IC50 value was documented for this compound, `CC(C)N1CCN(c2ccc(-c3nc(-c4ccc5c(c4)C4(CC4)NCC5=O)c(N)nc3F)cc2)CC1` ?
A. 101 to 1000 nM

Q. What IC50 value was documented for this compound, `C[C@@H]1CN(c2ccc(-c3nc(-c4ccc5c(=O)[nH]cc(F)c5c4)c(N)nc3F)cc2CN(C)C)C[C@H](C)O1` ?
A. 0.1 to 10 nM
